Reference source for all entries: PubChem BioAssay AID2060601

Give viability, T/C for every item shown.
Tested on: 874868-142-R-J2-PDC complex spheroids, growth % test/control
Assay comment: Anticancer human tumor 874868-142-R-J2-PDC patient-derived head and neck squamous carcinoma cell line growth inhibition [CLK]
Measurement setup: second compound 0.0316 µM; first compound 0.1 µM; hits give low values

Illustrative cases are given below, each with its answer.
>  <Molecule>
COc1c(OCCCN2CCOCC2)ccc2c3n(c(=NC(=O)c4cnc(N)nc4)nc12)CCN3 + CN1CCN(c2cc(C(=O)Nc3cc4cc(-c5cnn(C)c5)ccc4cn3)ccn2)CC1

>  <Metric>
viability, T/C

>  <Result>
11.6%

$$$$
>  <Molecule>
CCCS(=O)(=O)Nc1ccc(F)c(C(=O)c2c[nH]c3ncc(-c4ccc(Cl)cc4)cc23)c1F + CN1CCN(c2cc(C(=O)Nc3cc4cc(-c5cnn(C)c5)ccc4cn3)ccn2)CC1

>  <Metric>
viability, T/C

>  <Result>
95.3%

$$$$
>  <Molecule>
Nc1ccn(C2OC(CO)C(O)C2(F)F)c(=O)n1 (stereo not given) + CNC(=O)c1ccc(Nc2nc(OC3CCCC3)c3c(-c4ccc5nc(C)oc5c4)c[nH]c3n2)c(OC)c1

>  <Metric>
viability, T/C

>  <Result>
80.2%

$$$$

# map each molecule to its viability, T/C
1. CCN1CCN(Cc2ccc(Nc3ncc(F)c(-c4cc(F)c5nc(C)n(C(C)C)c5c4)n3)nc2)CC1 + CN1CCN(c2cc(C(=O)Nc3cc4cc(-c5cnn(C)c5)ccc4cn3)ccn2)CC1
2. O=C(c1cc(Cc2n[nH]c(=O)c3ccccc23)ccc1F)N1CCN(C(=O)C2CC2)CC1 + CNC(=O)c1ccc(Nc2nc(OC3CCCC3)c3c(-c4ccc5nc(C)oc5c4)c[nH]c3n2)c(OC)c1

[out]
89%
90.7%

---

Tested on: 874868-142-R-J2-PDC complex spheroids, growth % test/control
Assay comment: Anticancer human tumor 874868-142-R-J2-PDC cell line growth inhibition [CLK];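 also: spheroids exposed to the compounds for 7 days; 100% = DMSO vehicle control viability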
Measurement setup: second compound 0.1 µM; first compound 1 µM; hits give low values
Record form. Attribute: viability, T/C. Fill in for each entry.
Give bare numbers, in %.

As a guide, the following entries are already answered.
>  <Compound>
C=C(F)C(=O)N1CCN(c2nc(OCC3CCCN3C)nc3c2CCN(c2cccc4cccc(Cl)c24)C3)CC1CC#N (configuration not stated) + CN1CCN(c2cc(C(=O)Nc3cc4cc(-c5cnn(C)c5)ccc4cn3)ccn2)CC1

>  <Test target>
874868-142-R-J2-PDC complex spheroids, growth % test/control

>  <Quantitative result>
62

$$$$
>  <Compound>
C=C(F)C(=O)N1CCN(c2nc(OCC3CCCN3C)nc3c2CCN(c2cccc4cccc(Cl)c24)C3)CC1CC#N (configuration not stated) + CNC(=O)c1ccc(Nc2nc(OC3CCCC3)c3c(-c4ccc5nc(C)oc5c4)c[nH]c3n2)c(OC)c1

>  <Test target>
874868-142-R-J2-PDC complex spheroids, growth % test/control

>  <Quantitative result>
61.6

$$$$
>  <Compound>
CCCS(=O)(=O)Nc1ccc(F)c(C(=O)c2c[nH]c3ncc(-c4ccc(Cl)cc4)cc23)c1F + CN1CCN(c2cc(C(=O)Nc3cc4cc(-c5cnn(C)c5)ccc4cn3)ccn2)CC1

>  <Test target>
874868-142-R-J2-PDC complex spheroids, growth % test/control

>  <Quantitative result>
103

$$$$
>  <Compound>
CCCS(=O)(=O)Nc1ccc(F)c(C(=O)c2c[nH]c3ncc(-c4ccc(Cl)cc4)cc23)c1F + CNC(=O)c1ccc(Nc2nc(OC3CCCC3)c3c(-c4ccc5nc(C)oc5c4)c[nH]c3n2)c(OC)c1

>  <Test target>
874868-142-R-J2-PDC complex spheroids, growth % test/control

>  <Quantitative result>
144

$$$$

Each compound below has a recorded value; state its viability, T/C.
1. C#Cc1c(F)ccc2cc(O)cc(-c3ncc4c(N5CC6CCC(C5)N6)nc(OCC56CCCN5CC(F)C6)nc4c3F)c12 (configuration not stated) + CN1CCN(c2cc(C(=O)Nc3cc4cc(-c5cnn(C)c5)ccc4cn3)ccn2)CC1
2. CCN1CCN(Cc2ccc(Nc3ncc(F)c(-c4cc(F)c5nc(C)n(C(C)C)c5c4)n3)nc2)CC1 + CN1CCN(c2cc(C(=O)Nc3cc4cc(-c5cnn(C)c5)ccc4cn3)ccn2)CC1

[out]
51.2
91
